B1: LINE1-full (parent)
chain: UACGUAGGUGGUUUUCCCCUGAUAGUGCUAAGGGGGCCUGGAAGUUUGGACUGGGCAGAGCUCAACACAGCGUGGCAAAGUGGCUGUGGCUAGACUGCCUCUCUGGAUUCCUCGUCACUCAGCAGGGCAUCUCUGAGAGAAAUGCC

- Variants of: B1
- TEST PROTOCOL: self-cleavage, relative activity (ratio to wild type); higher = more cleavage; in vitro, sequencing; the parent is a self-cleaving ribozyme
The entries below are paired with their reported self-cleavage.
Reply: number alone, nothing else.

Recorded self-cleavage, per entry:
>>> df
   variant_annotation  measured_metric  data_value
0          A69G U132C    self-cleavage        0.71
1           U15A G58A    self-cleavage        0.09
2            C3A G32A    self-cleavage        0.88
3          G93U U102A    self-cleavage        0.02
4          U15A G135A    self-cleavage        0.87

Could you tell me which self-cleavage is on file for U52C A121G ?
1.41

Could you tell me which self-cleavage is on file for U29G ?
1.1

Could you tell me which self-cleavage is on file for C28A G126A ?
0.66

Could you tell me which self-cleavage is on file for U62A A141U ?
0.01

Could you tell me which self-cleavage is on file for G41C U104G ?
1.58

// data source = the RNAGym collection of RNA variant scans (doi:10.7554/elife.90254)
